- System: Luciferin 4-monooxygenase (Photinus pyralis)
- Test Summary: firefly luciferase enzyme inhibitors, primary screen, biochemical, luminescence, purified enzyme, 2006 set (AID 1141);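 further: cell-free assay with purified firefly luciferase at 100 ng per well in PBS; test concentration not given here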
- Condition Details: SteadyGlo luminescence, 30 min, higher = more signal, called active from +8 up or from −8 down
Can you tell me z-score for the items I'm about to list?
Answers are plain numbers.

Past entries and their recorded results:
>  <Compound>
COCCOC(=O)N1C(=O)[C@@]2(c3cc(C#CC4=CCCCC4)ccc31)[C@H](C(=O)N1CCN(c3ncccn3)CC1)[C@H]1C(=O)O[C@H](c3ccccc3)[C@H](c3ccccc3)N1[C@@H]2c1ccccc1OCCO

>  <Readout Name>
z-score

>  <Measurement>
-1.22

$$$$
>  <Compound>
C=CCNC(=O)[C@H]1[C@@H]2C(=O)O[C@@H](c3ccccc3)[C@@H](c3ccccc3)N2[C@@H](c2ccc(O)cc2)[C@]12C(=O)Nc1ccc(C#CC3=CCCCC3)cc12

>  <Readout Name>
z-score

>  <Measurement>
0.0736

$$$$
>  <Compound>
C=CCC(OC(C)=O)[C@@H]1[C@@H](N(Cc2cc3ccccc3o2)C(=O)Cc2ccc(OC)cc2)c2cc(OCCCO)ccc2N1C(=O)Cc1ccc2ccccc2c1 (stereo partly specified)

>  <Readout Name>
z-score

>  <Measurement>
-0.1

$$$$
>  <Compound>
COC(=O)[C@@]1(Cc2ccc(F)cc2)[C@H]2c3cc(C(=O)N(C)C)n(CCN4CCOCC4)c3C[C@H]2CN1C(=O)c1ccccc1

>  <Readout Name>
z-score

>  <Measurement>
2.64

$$$$
>  <Compound>
C=CC[C@@]1(C(=O)N(C)C)N=C(c2ccc(OCCCO)cc2)O[C@@H]1c1ccccc1

>  <Readout Name>
z-score

>  <Measurement>
0.213

$$$$

So what's the measured z-score for this one? COC(=O)[C@@]1(Cc2ccc(F)cc2)[C@H]2c3cc(C(=O)N4CCCC4)n(CCO)c3C[C@H]2CN1C(=O)c1ccccc1
1.74
